Test system: Staphylococcus aureus
Assay: Antibacterial activity against Staphylococcus aureus ATCC 29213 after 24 hrs by broth dilution method
Type: functional
Conditions: ATCC 29213, 24 h
Entries and their MIC
Respond with the bare value in µg/mL.

Lookup: State, in one line, measured MIC of "CC(C)[C@@H]1NC(=O)[C@H](CCCN)NC(=O)[C@@H]2CCCN2C(=O)[C@@H](Cc2ccccc2)NC(=O)[C@H](CCCN)NC(=O)[C@H](C23CC4CC(CC(C4)C2)C3)NC(=O)[C@H](CCCN)NC(=O)[C@@H]2CCCN2C(=O)[C@@H](Cc2ccccc2)NC(=O)[C@H](CCCN)NC1=O"
Found: 64

Lookup: State, in one line, measured MIC of "CC(C)(C)[C@@H]1NC(=O)[C@H](CCCN)NC(=O)[C@@H]2CCCN2C(=O)[C@@H](Cc2ccccc2)NC(=O)[C@H](CCCN)NC(=O)[C@H](C23CC4CC(CC(C4)C2)C3)NC(=O)[C@H](CCCN)NC(=O)[C@@H]2CCCN2C(=O)[C@@H](Cc2ccccc2)NC(=O)[C@H](CCCN)NC1=O"
Found: 64

Lookup: State, in one line, measured MIC of "CCCCCCCCCC[C@@H]1NC(=O)[C@H](CCCN)NC(=O)[C@@H]2CCCN2C(=O)[C@@H](Cc2ccccc2)NC(=O)[C@H](CCCN)NC(=O)[C@H](C(C)C)NC(=O)[C@H](CCCN)NC(=O)[C@@H]2CCCN2C(=O)[C@@H](Cc2ccccc2)NC(=O)[C@H](CCCN)NC1=O"
Found: 16

Lookup: State, in one line, measured MIC of "NCCC[C@@H]1NC(=O)[C@H](CC23CC4CC(CC(C4)C2)C3)NC(=O)[C@H](CCCN)NC(=O)[C@@H]2CCCN2C(=O)[C@@H](Cc2ccccc2)NC(=O)[C@H](CCCN)NC(=O)[C@H](CC23CC4CC(CC(C4)C2)C3)NC(=O)[C@H](CCCN)NC(=O)[C@@H]2CCCN2C(=O)[C@@H](Cc2ccccc2)NC1=O"
Found: 8

Pending molecule:
Lookup: State, in one line, measured MIC of "CC(C)(C)C[C@@H]1NC(=O)[C@H](CCCN)NC(=O)[C@@H]2CCCN2C(=O)[C@@H](Cc2ccccc2)NC(=O)[C@H](CCCN)NC(=O)[C@H](CC23CC4CC(CC(C4)C2)C3)NC(=O)[C@H](CCCN)NC(=O)[C@@H]2CCCN2C(=O)[C@@H](Cc2ccccc2)NC(=O)[C@H](CCCN)NC1=O"
Found: 16

----------
Tested on: Staphylococcus epidermidis
Assay: Antibacterial activity against Staphylococcus epidermidis ATCC 12228 after 24 hrs by broth dilution method
Type: functional
Settings: ATCC 12228, 24 h
Square brackets hold non-standard residues; d marks the D form. Peptide text beside a SMILES is read from it. Gly(1-adamantyl) = N[C@H](C(=O)O)C12CC3CC(CC(C3)C1)C2; Orn = NCCC[C@H](N)C(=O)O
measure: MIC (µg/mL)
Respond with the bare value in µg/mL.

Completed entries (count: 2):
Lookup: State, in one line, measured MIC of NCCC[C@@H]1NC(=O)[C@H](C23CC4CC(CC(C4)C2)C3)NC(=O)[C@H](CCCN)NC(=O)[C@@H]2CCCN2C(=O)[C@@H](Cc2ccccc2)NC(=O)[C@H](CCCN)NC(=O)[C@H](C23CC4CC(CC(C4)C2)C3)NC(=O)[C@H](CCCN)NC(=O)[C@@H]2CCCN2C(=O)[C@@H](Cc2ccccc2)NC1=O (cyclo([Orn][dF]P[Orn][Gly(1-adamantyl)][Orn][dF]P[Orn][Gly(1-adamantyl)]))
Found: 4

Lookup: State, in one line, measured MIC of "CC(C)[C@@H]1NC(=O)[C@H](CCCN)NC(=O)[C@@H]2CCCN2C(=O)[C@@H](Cc2ccccc2)NC(=O)[C@H](CCCN)NC(=O)[C@H](C(C)(C)C)NC(=O)[C@H](CCCN)NC(=O)[C@@H]2CCCN2C(=O)[C@@H](Cc2ccccc2)NC(=O)[C@H](CCCN)NC1=O"
Found: 64

Next:
Lookup: State, in one line, measured MIC of "CCCCCCCCCC[C@@H]1NC(=O)[C@H](CCCN)NC(=O)[C@@H]2CCCN2C(=O)[C@@H](Cc2ccccc2)NC(=O)[C@H](CCCN)NC(=O)[C@H](CCCCCCCCCC)NC(=O)[C@H](CCCN)NC(=O)[C@@H]2CCCN2C(=O)[C@@H](Cc2ccccc2)NC(=O)[C@H](CCCN)NC1=O"
Found: 4

----------
Test system: Staphylococcus aureus
Experiment: Antibacterial activity against Staphylococcus aureus ATCC 29213 after 24 hrs by broth dilution method
Assay type: functional
Settings: ATCC 29213, 24 h
Entries and their MIC

Lookup: State, in one line, measured MIC of "CC(C)C[C@@H]1NC(=O)[C@H](CCCN)NC(=O)[C@@H]2CCCN2C(=O)[C@@H](Cc2ccccc2)NC(=O)[C@H](CCCN)NC(=O)[C@H](CC(C)(C)C)NC(=O)[C@H](CCCN)NC(=O)[C@@H]2CCCN2C(=O)[C@@H](Cc2ccccc2)NC(=O)[C@H](CCCN)NC1=O"
Found: > 64 µg/mL

Lookup: State, in one line, measured MIC of "CC(C)[C@@H]1NC(=O)[C@H](CCCN)NC(=O)[C@@H]2CCCN2C(=O)[C@@H](Cc2ccccc2)NC(=O)[C@H](CCCN)NC(=O)[C@H](C(C)C)NC(=O)[C@H](CCCN)NC(=O)[C@@H]2CCCN2C(=O)[C@@H](Cc2ccccc2)NC(=O)[C@H](CCCN)NC1=O"
Found: > 64 µg/mL

Pending compound:
Lookup: State, in one line, measured MIC of "CC(C)C[C@@H]1NC(=O)[C@H](CCCN)NC(=O)[C@@H]2CCCN2C(=O)[C@@H](Cc2ccccc2)NC(=O)[C@H](CCCN)NC(=O)[C@H](CC(C)C)NC(=O)[C@H](CCCN)NC(=O)[C@@H]2CCCN2C(=O)[C@@H](Cc2ccccc2)NC(=O)[C@H](CCCN)NC1=O"
Found: > 64 µg/mL
